Assignment: determine reported self-cleavage kobs at 10000 uM GlcN6P for the given variants.
B1: glmS ribozyme (parent)
chain: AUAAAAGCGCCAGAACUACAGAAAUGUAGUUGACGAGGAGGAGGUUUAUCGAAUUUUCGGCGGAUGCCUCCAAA

- Variants of: B1
- ASSAY_NAME: self-cleavage kobs at 10000 uM GlcN6P; higher = faster cleavage; RNA array
- TEST_PARAMETERS: with glucosamine-6-phosphate
Variants at the floor of the assay were thinned out.
Please state the figure in s⁻¹; there is no need to write the unit.

Ask: Recorded self-cleavage kobs at 10000 uM GlcN6P of A39C U46A , please.
Result: 0.000249

Ask: GET /values?readout=self-cleavage kobs at 10000 uM GlcN6P&item= U55C U65G
Result: 0.00288

Ask: Fill in the blank: the reported self-cleavage kobs at 10000 uM GlcN6P of U31A U47G is ____.
Result: 0.00266

Ask: Could you tell me which self-cleavage kobs at 10000 uM GlcN6P is on file for U56G U65C ?
Result: 0.000366

Ask: Please give the measured self-cleavage kobs at 10000 uM GlcN6P for this variant: G29U U47C
Result: 0.000206

Ask: What value of self-cleavage kobs at 10000 uM GlcN6P has been reported for the following variant? A12U C67U C71G
Result: 4.02e-05

Ask: # lookup: self-cleavage kobs at 10000 uM GlcN6P of A39G C71A
Result: 0.00612

Ask: What value of self-cleavage kobs at 10000 uM GlcN6P has been recorded for this entry: U30G C58A
Result: 0.000293

Ask: Return reported self-cleavage kobs at 10000 uM GlcN6P; argument: U47C U56G
Result: 0.00243

Ask: GET /values?readout=self-cleavage kobs at 10000 uM GlcN6P&item= G37A A39C G40U
Result: 4.03e-05

Ask: Need self-cleavage kobs at 10000 uM GlcN6P of U45G U69A , thanks.
Result: 0.000362

Ask: Which self-cleavage kobs at 10000 uM GlcN6P reading was recorded for the variant G32U C67G ?
Result: 0.000107

Ask: Return reported self-cleavage kobs at 10000 uM GlcN6P; argument: G44U A64U C67G
Result: 6.97e-05

Ask: Suppose we examine the variant A42G U45G ; what self-cleavage kobs at 10000 uM GlcN6P value has been reported?
Result: 0.0514

Ask: What does the data say about its self-cleavage kobs at 10000 uM GlcN6P? Entry: A12G U46A
Result: 0.000187

Ask: Entry U47C C67G C70U : reported self-cleavage kobs at 10000 uM GlcN6P = ?
Result: 8.24e-05

Ask: What value of self-cleavage kobs at 10000 uM GlcN6P has been recorded for this entry: A39G G44U
Result: 0.00136

Ask: Which self-cleavage kobs at 10000 uM GlcN6P is listed for C10A C58G G60A U69G ?
Result: 5.7e-05

Ask: Requested read-out: self-cleavage kobs at 10000 uM GlcN6P. Entry: G29C U55G
Result: 0.000757

Ask: Look at this variant and give its reported self-cleavage kobs at 10000 uM GlcN6P. G26U U65G
Result: 0.00449
